The origin of these recorded values is patent US20230026271A1.

Biological target: CPS1 (Homo sapiens)
Construct: The full length, human CPS1 gene was cloned into pFastBac HTA; His6 (from the pFastBac HTA vector); made in house; host or cells: SF21 insect cells (baculovirus, Bac-to-bac)
Assay: ADP-Glo endpoint assay measuring the ATPase activity of CPS1
Assay type: biochemical
Settings: geometric mean of a minimum of two values; 50 nM CPS1, 10 μM ATP, 0.2 mM NAG, 60 min at room temperature; read-out: ADPGlo IC50
Exercise: for every item that follows, state its recorded log10 of IC50.
On a log10 scale: recorded IC50, unit µM.

Please list log10 of IC50 recorded for the compound COc1ccc(C(=O)N2[C@H](C)CN(C(=O)Cc3c[nH]c4cccnc34)C[C@H]2C)c(F)c1 [Compound 89]
1.63

Dear colleague, please send me the reported log10 of IC50 for COc1ccc(C(=O)N2[C@H](C)CN(C(=O)c3c[nH]c4ccccc34)C[C@H]2C)c(F)c1 [Compound 77] when you can.
1.28

Output log10 of IC50 of COc1ccc(C(=O)N2[C@H](C)CN(C(=O)Cc3c(C)[nH]c4ccccc34)C[C@H]2C)c(F)c1 [Compound 78]
1.28

Dear colleague, please send me the reported log10 of IC50 for COc1ccc(C(=O)N2CC(C)N(C(=O)c3ccc(OC)cc3F)C(C)C2)c(F)c1 (stereo not drawn) [Compound 68] when you can.
0.80

Query log10 of IC50 for CCOc1ccc(C(=O)N2C[C@@H](C)N(C(=O)c3ccc(OC)cc3F)[C@H](C)C2)c(F)c1 [Compound 5]
-0.86

Please supply the value of reported log10 of IC50 for the item COc1ccc(C(=O)N2C[C@@H](C)N(C(=O)/C=C/c3ccc(O)cc3)[C@H](C)C2)c(F)c1 [Compound 106]
0.63

Tell me its log10 of IC50 given COc1ccc(C(=O)N2C[C@@H](C)N(C(=O)c3cc4cc(O)ccc4[nH]3)[C@H](C)C2)c(F)c1 [Compound 55] as the entry.
0.33

Note log10 of IC50 for the compound shown: COc1ccc(C(=O)N2[C@H](C)CN(C(=O)c3ccc(F)cc3F)C[C@H]2C)c(F)c1 [Compound 12]
0.41

Dear colleague, please send me the reported log10 of IC50 for COc1ccc(C(=O)N2[C@H](C)CN(C(=O)c3ccc(OC)cc3Cl)C[C@H]2C)c(F)c1 [Compound 11] when you can.
0.45

Give me measured log10 of IC50, please, for this compound: COc1ccc(C(=O)N2[C@H](C)CN(C(=O)Cc3n[nH]c4ccccc34)C[C@H]2C)c(F)c1 [Compound 88]
1.58

Tell me measured log10 of IC50 for COc1ccc(C(=O)N2[C@H](C)CN(C(=O)c3c[nH]c4ccc(F)cc34)C[C@H]2C)c(F)c1 [Compound 87] please.
1.58

Respond only with log10 of IC50 recorded for COc1ccc(C(=O)N2[C@H](C)CN(C(=O)c3cc4c(OC)ccc(OC)c4[nH]3)C[C@H]2C)c(F)c1 [Compound 82]
1.42

Complete the entry with log10 of IC50 for COc1ccc(C(=O)N2CCN(C(=O)c3ccc(OC)cc3F)C(C)C2C)c(F)c1 (stereo not drawn) [Compound 86]
1.56

---

I'd be grateful if you could share measured IC50 for these entries.
Target: CPS1 (Homo sapiens, UniProt P31327)
Construct: The full length, human CPS1 gene was cloned into pFastBac HTA; His6 (from the pFastBac HTA vector); made in house; host or cells: SF21 insect cells (baculovirus, Bac-to-bac)
Sequence (P31327 39-1500): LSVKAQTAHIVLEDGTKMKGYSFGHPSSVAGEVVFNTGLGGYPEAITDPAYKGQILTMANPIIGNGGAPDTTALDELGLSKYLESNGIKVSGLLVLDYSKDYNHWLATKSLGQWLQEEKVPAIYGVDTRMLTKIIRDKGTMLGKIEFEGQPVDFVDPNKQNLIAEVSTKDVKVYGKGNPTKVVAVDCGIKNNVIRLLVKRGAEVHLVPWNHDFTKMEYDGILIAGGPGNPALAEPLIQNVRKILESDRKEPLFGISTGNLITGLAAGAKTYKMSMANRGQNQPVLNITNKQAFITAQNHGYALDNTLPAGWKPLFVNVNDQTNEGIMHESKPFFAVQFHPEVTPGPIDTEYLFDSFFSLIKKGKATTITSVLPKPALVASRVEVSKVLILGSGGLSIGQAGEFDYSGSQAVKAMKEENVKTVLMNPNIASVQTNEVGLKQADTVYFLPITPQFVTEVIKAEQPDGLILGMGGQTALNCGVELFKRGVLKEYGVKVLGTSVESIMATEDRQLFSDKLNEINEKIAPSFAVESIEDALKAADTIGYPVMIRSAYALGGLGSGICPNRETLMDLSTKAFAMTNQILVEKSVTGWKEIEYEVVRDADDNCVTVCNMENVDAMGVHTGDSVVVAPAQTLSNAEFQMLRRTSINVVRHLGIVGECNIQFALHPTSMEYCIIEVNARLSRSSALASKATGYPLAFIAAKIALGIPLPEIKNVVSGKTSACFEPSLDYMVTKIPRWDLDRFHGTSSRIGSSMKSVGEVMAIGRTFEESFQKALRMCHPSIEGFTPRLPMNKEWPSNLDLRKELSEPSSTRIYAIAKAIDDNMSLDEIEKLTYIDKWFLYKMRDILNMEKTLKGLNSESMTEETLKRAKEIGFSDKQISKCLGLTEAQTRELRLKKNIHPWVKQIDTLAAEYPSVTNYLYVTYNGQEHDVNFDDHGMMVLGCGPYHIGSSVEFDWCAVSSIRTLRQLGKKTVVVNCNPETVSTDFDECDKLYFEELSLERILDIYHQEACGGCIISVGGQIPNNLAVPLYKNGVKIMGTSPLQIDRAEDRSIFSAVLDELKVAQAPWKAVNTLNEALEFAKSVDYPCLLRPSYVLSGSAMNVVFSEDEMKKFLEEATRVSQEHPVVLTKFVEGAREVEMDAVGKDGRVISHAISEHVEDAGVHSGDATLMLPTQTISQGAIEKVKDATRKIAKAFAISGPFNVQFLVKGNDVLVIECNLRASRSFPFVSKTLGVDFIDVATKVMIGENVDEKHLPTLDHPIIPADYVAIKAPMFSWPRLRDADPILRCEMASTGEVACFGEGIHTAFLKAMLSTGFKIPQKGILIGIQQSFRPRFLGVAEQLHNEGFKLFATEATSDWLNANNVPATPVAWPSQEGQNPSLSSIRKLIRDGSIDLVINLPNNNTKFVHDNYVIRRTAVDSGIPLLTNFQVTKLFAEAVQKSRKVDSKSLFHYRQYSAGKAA
Assay: ADP-Glo endpoint assay measuring the ATPase activity of CPS1
Format: biochemical
Settings: geometric mean of a minimum of two values; 50 nM CPS1, 10 μM ATP, 0.2 mM NAG, 60 min at room temperature; read-out: ADPGlo IC50
Dear colleague, please return just the value in µM, with no unit written.

Note down IC50 recorded for COc1ccc(C(=O)N2[C@H](C)CN(C(=O)c3c[nH]c4c(F)cccc34)C[C@H]2C)c(F)c1
4.05

Return reported IC50. Input compound: COc1ccc(C(=O)N2[C@H](C)CN(C(=O)c3ccc(OC)c(F)c3)C[C@H]2C)c(F)c1
0.545
